These entries and their values trace back to patent US10259810B2.

Experimental target: ΔF508-CFTR (Homo sapiens, UniProt P13569, DEL508-508)
Construct: host or cells: CFBE41o-, doxycycline-inducible
Sequence (P13569 with tags, fused parts or gaps DEL508-508): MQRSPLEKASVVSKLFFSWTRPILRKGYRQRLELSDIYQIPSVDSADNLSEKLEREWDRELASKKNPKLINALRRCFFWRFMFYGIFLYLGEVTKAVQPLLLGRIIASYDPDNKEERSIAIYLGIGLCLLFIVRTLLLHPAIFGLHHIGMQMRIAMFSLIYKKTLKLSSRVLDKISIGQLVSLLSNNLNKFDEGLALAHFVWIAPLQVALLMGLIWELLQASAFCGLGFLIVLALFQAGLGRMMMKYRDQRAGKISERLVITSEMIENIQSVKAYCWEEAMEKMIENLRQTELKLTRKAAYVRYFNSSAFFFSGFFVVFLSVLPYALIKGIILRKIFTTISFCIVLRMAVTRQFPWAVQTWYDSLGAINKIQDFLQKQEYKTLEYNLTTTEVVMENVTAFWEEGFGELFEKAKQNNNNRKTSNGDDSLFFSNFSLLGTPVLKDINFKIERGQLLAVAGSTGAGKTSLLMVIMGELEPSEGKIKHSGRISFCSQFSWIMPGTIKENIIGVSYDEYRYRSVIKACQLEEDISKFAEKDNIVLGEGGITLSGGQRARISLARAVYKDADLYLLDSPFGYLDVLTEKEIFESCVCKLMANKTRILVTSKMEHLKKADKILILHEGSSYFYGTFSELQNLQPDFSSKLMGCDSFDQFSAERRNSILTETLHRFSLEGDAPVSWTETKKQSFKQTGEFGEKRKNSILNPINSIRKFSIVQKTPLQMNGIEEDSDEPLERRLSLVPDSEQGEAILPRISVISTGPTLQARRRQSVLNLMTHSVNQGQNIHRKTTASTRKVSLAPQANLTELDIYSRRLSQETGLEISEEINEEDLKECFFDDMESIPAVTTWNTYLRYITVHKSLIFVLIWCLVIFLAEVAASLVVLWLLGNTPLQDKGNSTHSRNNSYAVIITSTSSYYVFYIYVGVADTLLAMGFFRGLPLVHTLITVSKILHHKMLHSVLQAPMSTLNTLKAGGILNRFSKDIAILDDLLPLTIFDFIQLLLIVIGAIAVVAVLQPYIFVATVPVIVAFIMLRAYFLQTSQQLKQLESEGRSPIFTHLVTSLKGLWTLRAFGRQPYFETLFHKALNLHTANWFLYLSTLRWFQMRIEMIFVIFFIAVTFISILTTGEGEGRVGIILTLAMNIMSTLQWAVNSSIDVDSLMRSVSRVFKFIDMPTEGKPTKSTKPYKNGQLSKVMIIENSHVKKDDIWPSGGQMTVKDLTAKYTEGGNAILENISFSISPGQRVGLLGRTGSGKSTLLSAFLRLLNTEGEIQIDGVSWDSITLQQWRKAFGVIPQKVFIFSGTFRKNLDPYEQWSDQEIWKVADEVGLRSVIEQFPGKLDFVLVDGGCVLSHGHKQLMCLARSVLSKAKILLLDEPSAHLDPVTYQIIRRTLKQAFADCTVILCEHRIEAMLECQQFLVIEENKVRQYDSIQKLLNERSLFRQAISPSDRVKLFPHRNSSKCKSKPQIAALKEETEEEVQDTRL
Assay details: CFTR cell surface levels using HRP-tagged ΔF508-CFTR expressing CFBE cells, in the presence of a co-corrector
Assay type: cell-based
Condition summary: HRP-tagged ΔF508-CFTR CFBE cells, in the presence of 3 μM co-corrector; read-out: EC50
Assay readout: EC50 (nM)
Give the number; nM is assumed, so skip it.

Previously resolved entries follow.
Compound | EC50 [nM]
COCCS(=O)(=O)NC(=O)c1cc(N2CCC(CN3CCCC3)CC2)c2c(C3CCC3)nn(-c3ccccc3)c2n1 | 170
COC1CCN(C2CCN(c3cc(C(=O)NS(=O)(=O)N(C)C)nc4c3c(C3CCC3)nn4-c3ccc(F)cc3)CC2)C1 (stereo not shown) | 308

For the compound CNS(=O)(=O)NC(=O)c1cc(N2CCC(N3CCN(C(C)C)CC3)CC2)c2c(C3CCC3)nn(-c3ccc(F)cc3)c2n1 , give its measured EC50 value. 95
